- System: Candida albicans
- ASSAY: Antifungal activity against Candida albicans SC5314 assessed as reduction in fungal growth incubated for 24 hrs by CLSI based microdilution analysis
- Type: functional
VALUE_KIND: MIC80 (µg/mL)
State the answer as a number, implicitly in µg/mL.

>  <MOLECULE>
OC(CN1CCN(CCCCCn2ccc3cc(Br)ccc32)CC1)(Cn1cncn1)c1ccc(F)cc1F (configuration not stated)

>  <MIC80, µg/mL>
0.125

$$$$
>  <MOLECULE>
O=C(c1cccc2ccccc12)N1CCN(CC(O)(Cn2cncn2)c2ccc(F)cc2F)CC1 (configuration not stated)

>  <MIC80, µg/mL>
0.25

$$$$
>  <MOLECULE>
O[C@](CN1CCN(CCn2ccc3cc(Br)ccc32)CC1)(Cn1cncn1)c1ccc(F)cc1F

>  <MIC80, µg/mL>
25

$$$$

Q. # get_value(readout='MIC80', item= OC(CN1CCN(CCCn2ccc3cc(Cl)ccc32)CC1)(Cn1cncn1)c1ccc(F)cc1F (configuration not stated) )
A. 0.031

Q. # get_value(readout='MIC80', item= O=C(c1cc2cc(Br)ccc2oc1=O)N1CCN(CC(O)(Cn2cncn2)c2ccc(F)cc2F)CC1 (configuration not stated) )
A. 0.125

Q. # get_value(readout='MIC80', item= OC(CN1CCN(CCn2ccc3cc(Br)ccc32)CC1)(Cn1cncn1)c1ccc(F)cc1F (configuration not stated) )
A. 0.015

Q. # get_value(readout='MIC80', item= OC(CN1CCN(CCn2ncc3cc(I)ccc32)CC1)(Cn1cncn1)c1ccc(F)cc1F (configuration not stated) )
A. 0.062

---

Listing of recorded MIC80 by entry.
- Tested on: Nakaseomyces glabratus
- ASSAY: Antifungal activity against Candida glabrata ATCC 15126 assessed as reduction in fungal growth incubated for 24 hrs by CLSI based microdilution analysis
- Type: functional
State the answer as a number, implicitly in µg/mL.

Worked cases, answers included:
>  <COMPOUND>
OC(CN1CCN(CCCn2ccc3ccc(Cl)cc32)CC1)(Cn1cncn1)c1ccc(F)cc1F (stereo not drawn)

>  <MIC80 / µg/mL>
0.312

$$$$
>  <COMPOUND>
OC(CN1CCN(CCn2ccc3cc(Cl)c(Cl)cc32)CC1)(Cn1cncn1)c1ccc(F)cc1F (stereo not drawn)

>  <MIC80 / µg/mL>
0.312

$$$$

Next compound, MIC80 to be filled in.
Q. Provide the documented MIC80 with Nakaseomyces glabratus as the system for OC(CN1CCN(CCCn2ccc3ccc(Br)cc32)CC1)(Cn1cncn1)c1ccc(F)cc1F (stereo not drawn)
A. 0.312
